System: SW620 cells (KRAS G12V)
Measurement Protocol: Cell-based pERK HTRF assay in SW620 cell (Biological Example 4)
Experimental Setup: Homo sapiens, SW-620, SW620 (KRAS G12V) cells, pERK HTRF
pIC50: −log10 of the molar value.
Experimental Readout: pIC50

Examples with their reported pIC50 follow.
CCN(c1nc(OC[C@@]23CCCN2C[C@H](F)C3)nc2c(F)c(-c3ccc(F)c4sc(N)c(C#N)c34)c(C(F)(F)F)cc12)[C@@H]1CCN(C(C)=O)[C@@H]1C :: > 7.00
CN(C)C(=O)c1cc2n(n1)CCN(c1nc(OC[C@@]34CCCN3C[C@H](F)C4)nc3c(F)c(-c4ccc(F)c5sc(N)c(C#N)c45)c(C(F)(F)F)cc13)CC2 :: 6.00 to 7.00
CCN(c1nc(OC[C@@]23CCCN2C[C@H](F)C3)nc2c(F)c(-c3ccc(F)c4sc(N)c(C#N)c34)c(C(F)(F)F)cc12)[C@@H]1C[C@H](C)N(C(C)=O)C1 (atropisomer, axis not shown) :: > 7.00
C[C@@H]1[C@H](N(C)c2nc(OC[C@@]34CCCN3C[C@H](F)C4)nc3c(F)c(-c4ccc(F)c5sc(N)c(C#N)c45)c(C(F)(F)F)cc23)CC(=O)N1C :: > 7.00
C[C@H]1CCN1c1nc(OC[C@@]23CCCN2C[C@H](F)C3)nc2c(F)c(-c3ccc(F)c4sc(N)c(C#N)c34)c(C(F)(F)F)cc12 :: > 7.00

Look up pIC50 for this compound: `C[C@@H]1[C@H](N(C)c2nc(OC[C@@]34CCCN3C[C@H](F)C4)nc3c(F)c(-c4ccc(F)c5sc(N)c(C#N)c45)c(C(F)(F)F)cc23)CCN1C(=O)C1(C)CC1`
> 7.00

Please report the recorded pIC50 for `C[C@@H]1[C@H](N(C)c2nc(OC[C@@]34CCCN3C[C@H](F)C4)nc3c(F)c(-c4ccc(F)c5sc(N)c(C#N)c45)c(Cl)cc23)CCN1C(=O)C(C)(F)F` .
6.00 to 7.00
